- testDescription: chemical genetic growth profiling, strain panel (AID 1159580);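 also: tested at 20 µM; growth read once vehicle control cultures reached saturation at 30 °C; lower values mean less growth of the strain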
- testConditions: S. cerevisiae deletion strains, growth OD, locus YPR167C, strain met16
The whole screen tested about 5,500 compounds, of which about 2,000 (36%) were called active. About 18% were inconclusive and are not listed. Rule as the data show it: active = normalized growth mostly below about 0.91 (no sharp cut-off); inconclusive = no clear call, values can overlap the other calls; inactive = mostly above about 0.92. Some of the results follow.
Outcome codes: Yes for active, No for inactive

[
  {
    "compound": "CC(C)OC(=O)C(C)(C)Oc1ccc(C(=O)c2ccc(Cl)cc2)cc1",
    "assignedCategory": "No"
  },
  {
    "compound": "CCOC(=O)c1c(C)cc(O)c(C=O)c1O",
    "assignedCategory": "Yes"
  },
  {
    "compound": "CN1CCCN=C1COC(=O)C(O)(c1ccccc1)C1CCCCC1 (stereo unspecified)",
    "assignedCategory": "No"
  },
  {
    "compound": "CS(=O)(=O)c1ccc(C2=C(c3ccccc3)C(=O)OC2)cc1",
    "assignedCategory": "No"
  },
  {
    "compound": "CCOC(=O)C1(O)Oc2cc(OC)cc(OC)c2C(=O)C1c1ccccc1 (stereo unspecified)",
    "assignedCategory": "No"
  },
  {
    "compound": "CC(C)(OC(=O)c1ccccc1)[C@@H]1Cc2cc3ccc(=O)oc3cc2O1",
    "assignedCategory": "No"
  },
  {
    "compound": "C[N+](C)(C)CCCCCC[N+](C)(C)C",
    "assignedCategory": "No"
  },
  {
    "compound": "COc1cc2c(cc1OC)[C@@H]1C(=O)c3ccc4c(c3O[C@@H]1CO2)C=CC(C)(C)O4",
    "assignedCategory": "No"
  },
  {
    "compound": "COc1cc(NS(=O)(=O)c2ccc(N)cc2)nc(OC)n1",
    "assignedCategory": "No"
  },
  {
    "compound": "COc1cc2c(cc1OC)[C@@H]1C(=O)c3ccc4oc(C(C)C)cc4c3O[C@@H]1CO2",
    "assignedCategory": "No"
  },
  {
    "compound": "CNC(C)[C@H](O)c1ccccc1 (stereo partly specified)",
    "assignedCategory": "No"
  },
  {
    "compound": "CCN(CC)CCCC(C)Nc1ccnc2cc(Cl)ccc12 (stereo unspecified)",
    "assignedCategory": "No"
  },
  {
    "compound": "C[C@]12CC(=O)C3C(CC[C@@H]4C[C@H](O)CC[C@]34C)C1CC[C@]2(O)C(=O)CO (stereo partly specified)",
    "assignedCategory": "No"
  },
  {
    "compound": "Cc1cc(O)c(C=O)c(O)c1C(=O)O",
    "assignedCategory": "No"
  },
  {
    "compound": "COC1=CC(=O)C[C@@H](C)[C@]12Oc1c(Cl)c(OC)cc(OC)c1C2=O",
    "assignedCategory": "No"
  },
  {
    "compound": "CCN(CC)CCCC(C)Nc1c2ccc(Cl)cc2nc2ccc(OC)cc12 (stereo unspecified)",
    "assignedCategory": "Yes"
  },
  {
    "compound": "O=C(O)C1(O)C[C@@H](O)C(O)[C@H](O)C1 (stereo partly specified)",
    "assignedCategory": "No"
  },
  {
    "compound": "COc1cc2c(cc1OC)C1C(=O)c3c(O)cc4c(c3OC1CO2)C=CC(C)(C)O4 (stereo unspecified)",
    "assignedCategory": "No"
  },
  {
    "compound": "S=c1nc[nH]c2nc[nH]c12",
    "assignedCategory": "No"
  },
  {
    "compound": "CC(N)C(=O)OC(C)(C)Cc1ccc(Cl)cc1 (stereo unspecified)",
    "assignedCategory": "No"
  },
  {
    "compound": "N=c1ccn2c(n1)O[C@@H]1C2O[C@H](CO)[C@H]1O (stereo partly specified)",
    "assignedCategory": "No"
  },
  {
    "compound": "CCOC(=O)c1c(C)cc(O)c(C)c1O",
    "assignedCategory": "No"
  },
  {
    "compound": "COc1cc2c(cc1OC)[C@@H]1C(=O)c3ccc(OC)c(CC=C(C)C)c3O[C@@H]1CO2",
    "assignedCategory": "No"
  },
  {
    "compound": "CCN(CCO)CCCC(C)Nc1ccnc2cc(Cl)ccc12 (stereo unspecified)",
    "assignedCategory": "No"
  },
  {
    "compound": "OCC(O)C(O)C(O)CO (stereo unspecified)",
    "assignedCategory": "No"
  },
  {
    "compound": "COc1cc2c(cc1OC)C1C(=O)c3c(cc4c(c3O)C=CC(C)(C)O4)OC1CO2 (stereo unspecified)",
    "assignedCategory": "No"
  },
  {
    "compound": "O=C(O)c1cc2ccccc2[nH]1",
    "assignedCategory": "No"
  },
  {
    "compound": "CNCCc1ccccn1",
    "assignedCategory": "No"
  },
  {
    "compound": "CC(C(=O)O)c1ccc(-c2ccccc2)c(F)c1 (stereo unspecified)",
    "assignedCategory": "No"
  },
  {
    "compound": "COC1=C(OC)C(=O)C(C/C=C(\\C)CC/C=C(\\C)CC/C=C(\\C)CC/C=C(/C)CC/C=C(\\C)CC/C=C(\\C)CC/C=C(\\C)CC/C=C(\\C)CC/C=C(\\C)CCC=C(C)C)=C(C)C1=O",
    "assignedCategory": "No"
  },
  {
    "compound": "C=Cc1c2[nH]c(c1C)C=c1[nH]c(c(C)c1C=C)=CC1N=C(C=c3[nH]c(c(C)c3CCC(=O)O)=C2)C(CCC(=O)O)=C1C (stereo unspecified)",
    "assignedCategory": "No"
  },
  {
    "compound": "COc1ccc2c(C)cc(=O)oc2c1",
    "assignedCategory": "No"
  },
  {
    "compound": "O=C(O)c1cc2ccccc2c(Cc2c(O)c(C(=O)O)cc3ccccc23)c1O",
    "assignedCategory": "No"
  },
  {
    "compound": "Cc1cc(O)c(C)c(O)c1C(=O)O",
    "assignedCategory": "No"
  },
  {
    "compound": "CCOC(=O)C(=O)C1(C(=O)OCC)Oc2cc(OC)cc(OC)c2C(=O)C1c1ccccc1 (stereo unspecified)",
    "assignedCategory": "No"
  },
  {
    "compound": "COc1cc(O)c(C(=O)/C=C/c2ccccc2)c(OC)c1",
    "assignedCategory": "Yes"
  },
  {
    "compound": "CCCCCCCCNC(C)C(O)c1ccc(SC(C)C)cc1 (stereo unspecified)",
    "assignedCategory": "Yes"
  },
  {
    "compound": "C[N+](C)(C)CCOC(N)=O",
    "assignedCategory": "No"
  },
  {
    "compound": "CC(NCCc1ccc(O)cc1)C(O)c1ccc(O)cc1 (stereo unspecified)",
    "assignedCategory": "No"
  },
  {
    "compound": "COc1cc2c(cc1OC)C1C(=O)c3ccc4c(c3OC1CO2)CCC(C)(C)O4 (stereo unspecified)",
    "assignedCategory": "No"
  },
  {
    "compound": "Cc1cccc(C)c1OCC(C)N (stereo unspecified)",
    "assignedCategory": "No"
  },
  {
    "compound": "CC1=C(C(C)O)C2=NC1C=c1[nH]c(c(C)c1C(C)O)=Cc1[nH]c(c(CCC(=O)O)c1C)C=c1[nH]c(c(C)c1CCC(=O)O)=C2 (stereo unspecified)",
    "assignedCategory": "No"
  },
  {
    "compound": "COc1ccc(OC)c(C(O)C(C)N)c1 (stereo unspecified)",
    "assignedCategory": "No"
  },
  {
    "compound": "COc1cc2c(cc1OC)C1C(=O)c3c(OC)cc4c(c3OC1CO2)CCC(C)(C)O4 (stereo unspecified)",
    "assignedCategory": "No"
  },
  {
    "compound": "NCCSSCCN",
    "assignedCategory": "No"
  },
  {
    "compound": "CCOC(=O)C(Cc1ccc(O)cc1)NC(C)=O (stereo unspecified)",
    "assignedCategory": "No"
  }
]
